RECORDED ENDPOINT: melting point

Dear colleague, I am looking for the recorded melting point of the following molecule: COc1cccc(-c2nsnc(Nc3ccc4[nH]ncc4c3)c2=O)c1 [Compound 25]
220 to 221 °C

Name the reported melting point value associated with the molecule Cc1ccc(Nc2nsnc(-c3ccnc4[nH]ccc34)c2=O)cc1O [Compound 17]
292 to 293 °C

Given the entry COc1cccc(Nc2nsnc(-c3ccnc4[nH]ccc34)c2=O)c1 [Compound 15] , report its measured melting point.
257 to 258 °C

# query: melting point of entry O=c1c(Nc2ccc3[nH]ncc3c2)nsnc1-c1ccnc(F)c1 [Compound 26]
280 °C (dec.)

Any idea what melting point was measured for CN1CCN(c2nsnc(Nc3ccnc4[nH]ccc34)c2=O)CC1 [Compound 21] ?
286 to 287 °C

Which melting point value is on record for CN1CCN(c2nsnc(-c3ccnc4[nH]ccc34)c2=O)CC1 [Compound 20] ?
195 to 196 °C

Please give the measured melting point for this molecule: O=c1c(Nc2cccc(O)c2)nsnc1-c1ccnc2[nH]ccc12 [Compound 16]
326 to 327 °C

// returns reported melting point for input CN1CCN(c2nsnc(Nc3ccc4[nH]ncc4c3)c2=O)CC1 [Compound 22]
262 to 263 °C

Requested read-out: melting point. Entry: Cc1ccc(O)cc1Nc1nsnc(-c2ccnc3[nH]ccc23)c1=O [Compound 18]
304 to 305 °C

Fill in the blank: the reported melting point of O=c1c(Nc2ccc3[nH]ncc3c2)nsnc1-c1cccc(O)c1 [Compound 23] is ____.
282 to 283 °C

Would you mind telling me what melting point value was observed for CC(=O)c1cccc(Nc2nsnc(-c3ccnc4[nH]ccc34)c2=O)c1 [Compound 14] ?
271 to 273 °C

Entry O=c1c(-c2ccnc3[nH]ccc23)nsnc1N1CCOCC1 [Compound 19] : reported melting point = ?
256 to 257 °C

Given Cc1ccc(O)cc1-c1nsnc(Nc2ccc3[nH]ncc3c2)c1=O [Compound 24] , state its recorded melting point.
268 to 269 °C
